growth: recorded values
- Test system: Madurella mycetomatis MM55
- protocolText: growth relative to untreated control; higher = less inhibition, active = 20 or less
- setupConditions: 100 µM
measuredAttribute: growth (%)

>>> measuredresult("O=C(O)c1ccc2c(c1)nc(Nc1cccc(Cl)c1)c1ccncc12")
78.1
>>> measuredresult("COc1cc2nccc(Oc3ccc(NC(=O)C4(C(=O)Nc5ccc(F)cc5)CC4)cc3)c2cc1OC")
79.9
>>> measuredresult("COC(=O)C1=C(C)NC(C)=C(C(=O)OCCN2CCN(C(c3ccccc3)c3ccccc3)CC2)C1c1cccc([N+](=O)[O-])c1 (stereo not given)")
86.7
>>> measuredresult("O=C(c1ccc(Nc2nccc(-c3cc(Cl)cc(C(F)(F)F)c3)n2)cc1)N1CC2(COC2)C1")
50.6
>>> measuredresult("Nc1nonc1-c1nc2c(-c3cccc(Cl)c3)nccc2n1CCCNC(=O)Cc1ccc(Cl)cc1")
121
>>> measuredresult("CCN(CC)Cc1ccccc1CNc1ccnc2ccsc12")
5.38
>>> measuredresult("CC(=O)N1CCN(c2ccc(OC[C@H]3CO[C@](Cn4ccnc4)(c4ccc(Cl)cc4Cl)O3)cc2)CC1")
3.16
>>> measuredresult("CNC(=O)c1cc(-c2n[nH]c3ccc(-c4nc(C5CCCN5)n[nH]4)cc23)ccc1F (stereo not given)")
71.5
>>> measuredresult("OC1(CN2CCC(Oc3cccc(C(F)(F)F)c3)CC2)CCNC1 (stereo not given)")
12.9
>>> measuredresult("COc1ccc(Cl)cc1-c1nc(C(=O)NCCN2CCCCC2)c(C(C)C)s1")
6.6
>>> measuredresult("O=C(Nc1ncccc1O)c1ccc(S(=O)(=O)NCCc2cccs2)cc1")
70.6
>>> measuredresult("COc1cccc(-c2ccc(NC(=O)C3=C(C(=O)O)CCC3)c(F)c2)c1")
91.5
>>> measuredresult("Cc1ccc(-c2c3c(nc4sc(C(=O)Nc5ccc(F)cc5)c(N)c24)CCC3)cc1")
122
>>> measuredresult("CC(C)(C)Nc1ncc2nc(Nc3cccc(C(F)(F)F)c3)n(CC3CCNCC3)c2n1")
69.3
>>> measuredresult("c1cc(-c2n[nH]c3ccc(-c4n[nH]c(C5CCCN5)n4)cc23)ccc1CNC1CC1 (stereo not given)")
31.7
>>> measuredresult("CCOC(=O)NCCOc1cnn(Cc2ccccc2)c(=O)c1")
97.3
>>> measuredresult("Cc1cccnc1Nc1cn2cc(-c3ccnc(OC(C)C)n3)ccc2n1")
6.2
>>> measuredresult("CCOc1ccc(-c2nc(NC(=O)Cc3cccc(OC)c3)sc2C)cc1")
83.1
>>> measuredresult("NC(=O)c1ncn([C@@H]2O[C@H](CO)[C@@H](O)[C@H]2O)n1")
87.6
>>> measuredresult("FC(F)(F)c1ccc(CNc2ccc(Cc3c[nH]c4ncc(Cl)cc34)cn2)cn1")
95.5

###

- System: Falciformispora senegalensis CBS197.79
- protocolText: growth relative to untreated control; higher = less inhibition, active = 20 or less
- setupConditions: 100 µM
measuredAttribute: growth

>>> measuredresult("FC(F)(F)c1cc(Cl)cc(Nc2nc3cnc(NC4CCC4)cc3[nH]2)c1")
"10.8% (active)"
>>> measuredresult("FC(F)(F)c1cc(Cl)cc(Nc2nc3cnc(NCC4CC4)nc3n2C2CCNCC2)c1")
"17.6% (active)"
>>> measuredresult("CN(C)c1cc(NC(=O)CNC(C)(C)C)c(O)c2c1C[C@H]1C[C@H]3[C@H](N(C)C)C(O)=C(C(N)=O)C(=O)[C@@]3(O)C(O)=C1C2=O")
"107% (inactive)"
>>> measuredresult("CN1CCC(N2CCC(NC(=O)c3cc4c(F)cccc4s3)CC2)CC1")
"15.5% (active)"
>>> measuredresult("NC(=O)C(c1ccccc1)(c1ccccc1)[C@@H]1CCN(CCc2ccc3c(c2)CCO3)C1")
"97.9% (inactive)"
>>> measuredresult("Cc1cccnc1Nc1cn2cc(-c3ccnc(OC(C)C)n3)ccc2n1")
"91% (inactive)"

###

- System: Madurella mycetomatis MM55
- protocolText: growth relative to untreated control; higher = less inhibition, active = 20 or less
- setupConditions: 25 µM
The following compounds are listed with their measured growth values.
measuredAttribute: growth (%)

>>> measuredresult("Cc1cc(OCCN2CCOCC2)nn1-c1ccc2ccccc2c1")
85.8
>>> measuredresult("CN1CCC(N2CCC(NC(=O)c3cc4c(F)cccc4s3)CC2)CC1")
131
>>> measuredresult("FC(F)(F)c1cc(Nc2nc3cnc(NCC4CC4)nc3n2C2CCNCC2)cc(C(F)(F)F)c1")
34.1
>>> measuredresult("O=C(CCCN1CCC(O)(c2ccc(Cl)cc2)CC1)c1ccc(F)cc1")
76.2
>>> measuredresult("O=C(Nc1cnc2ccccc2c1)c1ccccc1C(=O)c1ccc(F)cc1")
92.9
>>> measuredresult("CC(C)N1CCN(c2ccc(OC[C@H]3CO[C@](Cn4cncn4)(c4ccc(Cl)cc4Cl)O3)cc2)CC1")
3.57
>>> measuredresult("Clc1ccc2ncc(-c3cccc(NC4CCNC4)n3)n2c1 (stereo not given)")
78.8
>>> measuredresult("CCOC(=O)C1=C(CC)NC2=C(C(=O)CC(C)(C)C2)C1c1ccc(Br)cc1 (stereo not given)")
106
>>> measuredresult("O=C(Nc1cccc(-c2n[nH]c3ccc(-c4n[nH]c(C5CCCN5)n4)cc23)c1)C1CC1 (stereo not given)")
62.4
>>> measuredresult("CC(C)(C)Nc1ncc2nc(Nc3cccc(C(F)(F)F)c3)n(CC3CCNCC3)c2n1")
107

###

Reported growth values for a set of compounds
- Test system: Madurella mycetomatis MM55
- protocolText: growth relative to untreated control; higher = less inhibition, active = 20 or less
- setupConditions: 25 µM
measuredAttribute: growth (%)

>>> measuredresult("Cc1cc2ncc(C(=O)NCC(C)(C)NCC(=O)N3CCC[C@H]3C#N)cn2n1")
82.4
>>> measuredresult("CN(C)CCOc1ccc2nc(-c3cccc(OCc4ccccc4)c3)[nH]c2c1C#N")
4.87
>>> measuredresult("CC(=O)Nc1ccc(NC(=O)c2cc(-c3ccc(C)cc3O)n[nH]2)cc1")
85.3
>>> measuredresult("FC(F)(F)c1cc(Cl)cc(Nc2nc3cnc(NC4CCOCC4)nc3n2C2CCNCC2)c1")
111
>>> measuredresult("NC(=O)c1nc(F)cnc1O")
83.1
>>> measuredresult("O=C(Nc1ncccc1O)c1ccc(S(=O)(=O)NCCc2cccs2)cc1")
128
>>> measuredresult("Cc1c(-c2ccc(-c3ccccc3F)cc2)nc2ccc(F)cc2c1C(=O)O")
115
>>> measuredresult("CO[C@H]1C[C@H](O[C@H]2[C@H](C)O[C@@H](O[C@@H]3/C(C)=C/C[C@@H]4C[C@@H](C[C@]5(C=C[C@H](C)[C@@H](C6CCCCC6)O5)O4)OC(=O)[C@@H]4C=C(C)[C@@H](O)[C@H]5OC/C(=C\\C=C\\[C@@H]3C)[C@]54O)C[C@@H]2OC)O[C@@H](C)[C@@H]1O")
101

###

- Test system: Madurella mycetomatis MM55
- protocolText: growth relative to untreated control; higher = less inhibition, active = 20 or less
- setupConditions: 25 µM
Overview of recorded growth for various compounds
measuredAttribute: growth (%)

>>> measuredresult("O=C1CN(C(=O)CCC2CCCC2)C(c2ccc(F)cc2)c2cc(Cl)ccc2N1 (centres undefined)")
69.6
>>> measuredresult("N#Cc1ccc(-c2n[nH]c3ccc(-c4n[nH]c(CC(F)(F)F)n4)cc23)cc1")
109
>>> measuredresult("CC[C@H](Nc1ncnc2[nH]cnc12)c1nc2cccc(F)c2c(=O)n1-c1ccccc1")
103
>>> measuredresult("CC(C)OC(=O)[C@H](C)N[P@](=O)(OC[C@H]1O[C@@H](n2ccc(=O)[nH]c2=O)[C@](C)(F)[C@@H]1O)Oc1ccccc1")
94.5
>>> measuredresult("Cc1cc(Nc2cc(N)ncn2)c(=O)n2c1C(=O)NC21CCCCC1")
85.9
>>> measuredresult("Cc1noc(C2CN(C(=O)c3ccc(Nc4nccc(-c5ccc(Cl)cc5)n4)cc3)C2)n1")
122
>>> measuredresult("CCOCCCNc1nc2cc(OC)c(OC)cc2c2nc(-c3ccccc3)nn12")
95.5
>>> measuredresult("O=C(NCCCNc1nc(Nc2ccc(N3CCOCC3)cc2)ncc1C1CC1)C1CCC1")
101
>>> measuredresult("C[C@H](Cn1cnc2c(N)ncnc21)OCP(=O)(O)O")
89.4

###

- System: Falciformispora senegalensis CBS197.79
- protocolText: growth relative to untreated control; higher = less inhibition, active = 20 or less
- setupConditions: 25 µM
Measured growth of individual entries
measuredAttribute: growth

>>> measuredresult("NC1(c2ccc(-c3nc4ccn5c(O)nnc5c4cc3-c3ccccc3)cc2)CCC1")
"104% (inactive)"
>>> measuredresult("O[C@@H](c1cc(C(F)(F)F)nc2c(C(F)(F)F)cccc12)[C@H]1CCCCN1")
"8.55% (active)"
>>> measuredresult("CCCCC(=O)N(Cc1ccc(-c2ccccc2-c2nn[nH]n2)cc1)[C@H](C(=O)O)C(C)C")
"103% (inactive)"
>>> measuredresult("CCN(CC)CCNc1nc(Nc2cccc(OC)c2)c2cnn(-c3ccccc3)c2n1")
"76.3% (inactive)"
>>> measuredresult("OC(Cn1cncn1)(Cn1cncn1)c1ccc(F)cc1F")
"106% (inactive)"
